Tested on: Mycobacterium tuberculosis Erdman (autoluminescent)
testProtocol: Einf, fitted maximum growth inhibition of three-drug combination (fraction); higher = stronger maximal inhibition
experimentalParameters: in vitro model: cholesterol 0.05 mM; time point: terminal (~4-5 doublings, model-specific)
measuredQuantity: Einf
Output spec: single numeric token, no unit.

{"compound": "CC[C@@H](CO)NCCN[C@@H](CC)CO [ethambutol] + NNC(=O)c1ccncc1 [isoniazid] + O=[N+]([O-])c1cn2c(n1)OC[C@@H](OCc1ccc(OC(F)(F)F)cc1)C2 [pretomanid]", "Einf": 0.858}

Now consider a different compound.
**Query** Enter reported Einf observed with Mycobacterium tuberculosis Erdman (autoluminescent) for COc1nc2ccc(Br)cc2cc1[C@@H](c1ccccc1)[C@@](O)(CCN(C)C)c1cccc2ccccc12 [bedaquiline] + CC(=O)NC[C@H]1CN(c2ccc(N3CCOCC3)c(F)c2)C(=O)O1 [linezolid] + CO[C@H]1/C=C/O[C@@]2(C)Oc3c(C)c(O)c4c(O)c(c(/C=N/N5CCN(C6CCCC6)CC5)c(O)c4c3C2=O)NC(=O)/C(C)=C\C=C\[C@H](C)[C@H](O)[C@@H](C)[C@@H](O)[C@@H](C)[C@H](OC(C)=O)[C@@H]1C [rifapentine]
**Result** 0.93

* * *

Listed below: GRinf values for each entry.
System: Mycobacterium tuberculosis Erdman (autoluminescent)
testProtocol: GRinf, maximum normalised growth rate inhibition (three-drug combination) (unitless (-1 to 1)); higher = less effect (negative = killing)
experimentalParameters: in vitro model: butyrate; time point: terminal (~4-5 doublings, model-specific)
Output spec: single numeric token, no unit.

Below, each entry is followed by its recorded GRinf result.
{"compound": "CC(C)/N=c1\\cc2n(-c3ccc(Cl)cc3)c3ccccc3nc-2cc1Nc1ccc(Cl)cc1 [clofazimine] + NNC(=O)c1ccncc1 [isoniazid] + O=[N+]([O-])c1cn2c(n1)OC[C@@H](OCc1ccc(OC(F)(F)F)cc1)C2 [pretomanid]", "GRinf": -0.14}
{"compound": "COc1c(N2C[C@@H]3CCCN[C@@H]3C2)c(F)cc2c(=O)c(C(=O)O)cn(C3CC3)c12 [moxifloxacin] + NC(=O)c1cnccn1 [pyrazinamide] + CO[C@H]1/C=C/O[C@@]2(C)Oc3c(C)c(O)c4c(O)c(c(/C=N/N5CCN(C)CC5)c(O)c4c3C2=O)NC(=O)/C(C)=C\\C=C\\[C@H](C)[C@H](O)[C@@H](C)[C@@H](O)[C@@H](C)[C@H](OC(C)=O)[C@@H]1C [rifampicin]", "GRinf": -0.00285}

**Query** Enter reported GRinf observed with Mycobacterium tuberculosis Erdman (autoluminescent) for CC[C@@H](CO)NCCN[C@@H](CC)CO [ethambutol] + NNC(=O)c1ccncc1 [isoniazid] + CO[C@H]1/C=C/O[C@@]2(C)Oc3c(C)c(O)c4c(O)c(c(/C=N/N5CCN(C)CC5)c(O)c4c3C2=O)NC(=O)/C(C)=C\C=C\[C@H](C)[C@H](O)[C@@H](C)[C@@H](O)[C@@H](C)[C@H](OC(C)=O)[C@@H]1C [rifampicin]
**Result** -0.0091

* * *

Tested on: Mycobacterium tuberculosis Erdman (autoluminescent)
testProtocol: FIC90 (Loewe) at 90% inhibition (log2); higher = more antagonistic
experimentalParameters: in vitro model: valerate; time point: terminal (~4-5 doublings, model-specific)
measuredQuantity: FIC90
Output spec: single numeric token, no unit.

{"compound": "COc1nc2ccc(Br)cc2cc1[C@@H](c1ccccc1)[C@@](O)(CCN(C)C)c1cccc2ccccc12 [bedaquiline] + COc1c(N2C[C@@H]3CCCN[C@@H]3C2)c(F)cc2c(=O)c(C(=O)O)cn(C3CC3)c12 [moxifloxacin]", "testedOn": "Mycobacterium tuberculosis Erdman (autoluminescent)", "FIC90": 0.622}
{"compound": "CC[C@@H](CO)NCCN[C@@H](CC)CO [ethambutol] + NNC(=O)c1ccncc1", "testedOn": "Mycobacterium tuberculosis Erdman (autoluminescent)", "FIC90": 0.345}
{"compound": "COc1nc2ccc(Br)cc2cc1[C@@H](c1ccccc1)[C@@](O)(CCN(C)C)c1cccc2ccccc12 [bedaquiline] + CO[C@H]1/C=C/O[C@@]2(C)Oc3c(C)c(O)c4c(O)c(c(/C=N/N5CCN(C6CCCC6)CC5)c(O)c4c3C2=O)NC(=O)/C(C)=C\\C=C\\[C@H](C)[C@H](O)[C@@H](C)[C@@H](O)[C@@H](C)[C@H](OC(C)=O)[C@@H]1C [rifapentine]", "testedOn": "Mycobacterium tuberculosis Erdman (autoluminescent)", "FIC90": 0.464}
{"compound": "CC(C)/N=c1\\cc2n(-c3ccc(Cl)cc3)c3ccccc3nc-2cc1Nc1ccc(Cl)cc1 [clofazimine] + CC[C@@H](CO)NCCN[C@@H](CC)CO [ethambutol]", "testedOn": "Mycobacterium tuberculosis Erdman (autoluminescent)", "FIC90": -0.728}
{"compound": "CC(=O)NC[C@H]1CN(c2ccc(N3CCOCC3)c(F)c2)C(=O)O1 [linezolid] + CO[C@H]1/C=C/O[C@@]2(C)Oc3c(C)c(O)c4c(O)c(c(/C=N/N5CCN(C6CCCC6)CC5)c(O)c4c3C2=O)NC(=O)/C(C)=C\\C=C\\[C@H](C)[C@H](O)[C@@H](C)[C@@H](O)[C@@H](C)[C@H](OC(C)=O)[C@@H]1C [rifapentine]", "testedOn": "Mycobacterium tuberculosis Erdman (autoluminescent)", "FIC90": 0.078}

Now consider a different compound.
**Query** Item NNC(=O)c1ccncc1 [isoniazid] + O=[N+]([O-])c1cn2c(n1)OC[C@@H](OCc1ccc(OC(F)(F)F)cc1)C2 [pretomanid] has what recorded FIC90?
**Result** 0.477

* * *

Listed below: total FIC50 values for each entry.
Tested on: Mycobacterium tuberculosis Erdman (autoluminescent)
testProtocol: total FIC50 (Loewe) at 50% inhibition, three-drug combination (log2); higher = more antagonistic
experimentalParameters: in vitro model: cholesterol-high 0.2 mM; time point: constant (~7 days, model-specific)
Output spec: single numeric token, no unit.

Below, each entry is followed by its recorded total FIC50 result.
{"compound": "CC(C)/N=c1\\cc2n(-c3ccc(Cl)cc3)c3ccccc3nc-2cc1Nc1ccc(Cl)cc1 [clofazimine] + CC(=O)NC[C@H]1CN(c2ccc(N3CCOCC3)c(F)c2)C(=O)O1 [linezolid] + NC(=O)c1cnccn1 [pyrazinamide]", "total FIC50": 0.27}
{"compound": "CC[C@@H](CO)NCCN[C@@H](CC)CO [ethambutol] + NNC(=O)c1ccncc1 [isoniazid] + CO[C@H]1/C=C/O[C@@]2(C)Oc3c(C)c(O)c4c(O)c(c(/C=N/N5CCN(C6CCCC6)CC5)c(O)c4c3C2=O)NC(=O)/C(C)=C\\C=C\\[C@H](C)[C@H](O)[C@@H](C)[C@@H](O)[C@@H](C)[C@H](OC(C)=O)[C@@H]1C [rifapentine]", "total FIC50": 1.28}
{"compound": "COc1c(N2C[C@@H]3CCCN[C@@H]3C2)c(F)cc2c(=O)c(C(=O)O)cn(C3CC3)c12 [moxifloxacin] + O=[N+]([O-])c1cn2c(n1)OC[C@@H](OCc1ccc(OC(F)(F)F)cc1)C2 [pretomanid] + CO[C@H]1/C=C/O[C@@]2(C)Oc3c(C)c(O)c4c(O)c(c(/C=N/N5CCN(C)CC5)c(O)c4c3C2=O)NC(=O)/C(C)=C\\C=C\\[C@H](C)[C@H](O)[C@@H](C)[C@@H](O)[C@@H](C)[C@H](OC(C)=O)[C@@H]1C", "total FIC50": 0.869}
{"compound": "CC[C@@H](CO)NCCN[C@@H](CC)CO [ethambutol] + O=[N+]([O-])c1cn2c(n1)OC[C@@H](OCc1ccc(OC(F)(F)F)cc1)C2 [pretomanid] + CO[C@H]1/C=C/O[C@@]2(C)Oc3c(C)c(O)c4c(O)c(c(/C=N/N5CCN(C6CCCC6)CC5)c(O)c4c3C2=O)NC(=O)/C(C)=C\\C=C\\[C@H](C)[C@H](O)[C@@H](C)[C@@H](O)[C@@H](C)[C@H](OC(C)=O)[C@@H]1C [rifapentine]", "total FIC50": 1.15}
{"compound": "COc1nc2ccc(Br)cc2cc1[C@@H](c1ccccc1)[C@@](O)(CCN(C)C)c1cccc2ccccc12 [bedaquiline] + COc1c(N2C[C@@H]3CCCN[C@@H]3C2)c(F)cc2c(=O)c(C(=O)O)cn(C3CC3)c12 [moxifloxacin] + NC(=O)c1cnccn1 [pyrazinamide]", "total FIC50": 0.399}
{"compound": "COc1nc2ccc(Br)cc2cc1[C@@H](c1ccccc1)[C@@](O)(CCN(C)C)c1cccc2ccccc12 [bedaquiline] + O=[N+]([O-])c1cn2c(n1)OC[C@@H](OCc1ccc(OC(F)(F)F)cc1)C2 [pretomanid] + CO[C@H]1/C=C/O[C@@]2(C)Oc3c(C)c(O)c4c(O)c(c(/C=N/N5CCN(C6CCCC6)CC5)c(O)c4c3C2=O)NC(=O)/C(C)=C\\C=C\\[C@H](C)[C@H](O)[C@@H](C)[C@@H](O)[C@@H](C)[C@H](OC(C)=O)[C@@H]1C [rifapentine]", "total FIC50": 1.12}

Now consider a different compound.
**Query** Item COc1nc2ccc(Br)cc2cc1[C@@H](c1ccccc1)[C@@](O)(CCN(C)C)c1cccc2ccccc12 [bedaquiline] + COc1c(N2C[C@@H]3CCCN[C@@H]3C2)c(F)cc2c(=O)c(C(=O)O)cn(C3CC3)c12 [moxifloxacin] + CO[C@H]1/C=C/O[C@@]2(C)Oc3c(C)c(O)c4c(O)c(c(/C=N/N5CCN(C)CC5)c(O)c4c3C2=O)NC(=O)/C(C)=C\C=C\[C@H](C)[C@H](O)[C@@H](C)[C@@H](O)[C@@H](C)[C@H](OC(C)=O)[C@@H]1C [rifampicin] has what recorded total FIC50?
**Result** 0.677
